- Assayed System: Cathepsin S (Homo sapiens, UniProt P25774)
- Sequence (P25774 whole entry): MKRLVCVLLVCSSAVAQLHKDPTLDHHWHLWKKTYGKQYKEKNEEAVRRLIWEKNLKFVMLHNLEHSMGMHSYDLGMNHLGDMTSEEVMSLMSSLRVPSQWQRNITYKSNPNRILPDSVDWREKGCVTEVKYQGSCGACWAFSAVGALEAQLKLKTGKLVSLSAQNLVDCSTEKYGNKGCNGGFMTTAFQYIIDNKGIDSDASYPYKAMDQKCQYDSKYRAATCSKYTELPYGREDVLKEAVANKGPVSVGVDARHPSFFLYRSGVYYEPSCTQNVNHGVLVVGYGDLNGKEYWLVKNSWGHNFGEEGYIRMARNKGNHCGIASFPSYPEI
- Test: Inhibition of Cathepsin S (unknown origin)
pKi: −log10 of the molar value.
Reported Property: pKi

Mol | Reported Property | Measurement
CN1CCN(C(=O)N[C@@H](Cc2ccccc2)C(=O)N[C@H](/C=C/S(=O)(=O)c2ccccc2)CCc2ccccc2)CC1 | pKi | 7.89

====

- Test: Permeability of compound measured after 7 hrs by PAMPA
- Format: ADME
- Condition Description: read-out: permeability

Mol | Papp at 7 h [×10⁻⁶ cm/s]
N#CC1(NC(=O)[C@H](CC2CCCCC2)NC(=O)C2CCOCC2)CC1 | 0.1
N#C[C@H](CCc1ccccc1)NC(=O)[C@H](CC1CCCCC1)NC(=O)C1CCOCC1 | 6.6
N#CC1(NC(=O)[C@H](CC2CCCCC2)N[C@@H](c2ccc(F)cc2)C(F)(F)F)CC1 | 4.9
N#C[C@H](COCc1ccccc1)NC(=O)[C@H](CC1CCCCC1)NC(=O)c1ccncc1 | 2
O=C(CS(=O)(=O)c1ccccc1)[C@H](COCc1ccccc1)NC(=O)[C@H](CC1CCCCC1)NC(=O)N1CCOCC1 | 0.8
N#C[C@H](CCc1ccccc1)NC(=O)[C@H](CC1CCCCC1)NC(=O)N1CCOCC1 | 6
N#C[C@H](CCc1ccccc1)NC(=O)[C@H](CC1CCCCC1)NC(=O)c1ccncc1 | 2.5
O=C(N/N=C/[C@H](COCc1ccccc1)NC(=O)[C@H](CC1CCCCC1)NC(=O)N1CCOCC1)c1ccccc1 | 0.1

====

- Assayed System: Cathepsin S (Homo sapiens, UniProt P25774)
- Test: Inhibition of recombinant Cathepsin S (unknown origin) expressed in Escherichia coli using Z-Val-Val-Arg-AMC as substrate by fluorescence based assay
pKi: −log10 of the molar value. Starred links: 1 amine or outer side, 2 acyl side, 3 side chain; linkers in the order of their positions; H or OH if unused. Non-standard residues stand in square brackets, D forms with d. Residues, ends and D or L forms follow the SMILES beside them. *: point of attachment. Cha = N[C@@H](CC1CCCCC1)C(=O)O; Morpholide = C1CN(*)CCO1; CO = O=C([*:1])[*:2]; Bn = c1ccc(C*)cc1
# cutoff 7 applies to pKi; >= gives YES, < gives NO

Compound | Group
O=C(SCC(=O)[C@H](COCc1ccccc1)NC(=O)[C@H](CC1CCCCC1)NC(=O)N1CCOCC1)c1ccccc1 | NO
O=C(OCC(=O)[C@H](COCc1ccccc1)NC(=O)[C@H](CC1CCCCC1)NC(=O)N1CCOCC1)c1ccccc1 | YES
O=C[C@H](COCc1ccccc1)NC(=O)[C@H](CC1CCCCC1)NC(=O)N1CCOCC1 ({Morpholide-CO}-[Cha]-Ser(Bn)-aldehyde) | YES
N#C[C@H](CCc1ccccc1)NC(=O)[C@H](CC1CCCCC1)NC(=O)C1CCOCC1 | NO
O=C(N/N=C(\CS(=O)(=O)c1ccccc1)[C@H](COCc1ccccc1)NC(=O)[C@H](CC1CCCCC1)NC(=O)N1CCOCC1)c1ccccc1 | NO
CS(=O)(=O)C[C@H](N[C@@H](c1ccc(F)cc1)C(F)(F)F)C(=O)NC1(C#N)CC1 | YES

====

Target or system Cathepsin B (Homo sapiens): recorded Ki listed per item.
Reported Property: Ki

Mol | Reported Property | Measurement
O=C(CS(=O)(=O)c1ccccc1)[C@H](COCc1ccccc1)NC(=O)[C@H](CC1CCCCC1)NC(=O)N1CCOCC1 | Ki | > 0.51 µM
CS(=O)(=O)C[C@H](N[C@@H](c1ccc([N+](=O)[O-])cc1)C(F)(F)F)C(=O)NC1(C#N)CC1 | Ki | > 12 µM
N#CC1(NC(=O)[C@H](CC2CCCCC2)NC(=O)c2ccncc2)CC1 | Ki | > 12 µM
O=C(CO)[C@H](COCc1ccccc1)NC(=O)[C@H](CC1CCCCC1)NC(=O)N1CCOCC1 | Ki | > 2.55 µM
N#C[C@H](COCc1ccccc1)NC(=O)[C@H](CC1CCCCC1)N[C@@H](c1ccc(F)cc1)C(F)(F)F | Ki | > 12 µM
N#CC1(NC(=O)[C@H](CC2CCCCC2)NC(=O)C2CCOCC2)CC1 | Ki | > 12 µM
O=C(OCC(=O)[C@H](COCc1ccccc1)NC(=O)[C@H](CC1CCCCC1)NC(=O)N1CCOCC1)c1ccccc1 | Ki | > 2.55 µM
N#CC1(NC(=O)[C@H](CC2CCCCC2)N[C@@H](c2ccc(F)cc2)C(F)(F)F)CC1 | Ki | > 12 µM
